# Test system: Nakaseomyces glabratus
# Method description: Antifungal activity against Candida glabrata ATCC 90030 after 48 hrs by broth microdilution method
# Type: functional
# Reported conditions: ATCC 90030, 48 h
Starred links: 1 amine or outer side, 2 acyl side, 3 side chain; linkers in the order of their positions; H or OH if unused. Positions of bridges follow the written chain, without caps; N, C: chain ends. Non-standard residues stand in square brackets, D forms with d. Residues, ends and D or L forms follow the SMILES beside them. *: point of attachment. hTyr(3S-OH,4S-OH,3'-OSO3H) = N[C@H](C(=O)O)[C@H](O)[C@@H](O)c1ccc(O)c(OS(=O)(=O)O)c1; Orn(4R-OH,5R-OH) = O=C([C@H](C[C@@H](O)[C@@H](O)N[*:3])N[*:1])[*:2]; Pro(3S-OH,4S-Me) = C[C@H]1CN[C@H](C(=O)O)[C@H]1O; X1 = CCCCCOc1ccc(-c2cc(-c3ccc(C(=O)*)cc3)no2)cc1; Gln(3R-OH) = NC(=O)C[C@@H](O)[C@H](N)C(=O)O; Hyp = O=C(O)[C@@H]1C[C@@H](O)CN1

Compound	Uom	Limit operator	MFC
OC(Cn1cncn1)(Cn1cncn1)c1ccc(F)cc1F	µg/mL	>	64
N=C(N)c1ccc(OCCCC2CCN(CCCOc3ccc(C(=N)N)cc3)CC2)cc1	µg/mL	>	64
C[C@@H](c1ncncc1F)[C@](O)(Cn1cncn1)c1ccc(F)cc1F	µg/mL	>	64
CCCCCOc1ccc(-c2cc(-c3ccc(C(=O)N[C@H]4C[C@@H](O)[C@@H](O)NC(=O)[C@@H]5[C@@H](O)[C@@H](C)CN5C(=O)[C@H]([C@H](O)CC(N)=O)NC(=O)[C@H]([C@H](O)[C@@H](O)c5ccc(O)c(OS(=O)(=O)O)c5)NC(=O)[C@@H]5C[C@@H](O)CN5C(=O)[C@H]([C@@H](C)O)NC4=O)cc3)no2)cc1 [MICAFUNGIN] (X1-[Orn(4R-OH,5R-OH)]T[Hyp][hTyr(3S-OH,4S-OH,3'-OSO3H)][Gln(3R-OH)][Pro(3S-OH,4S-Me)]; lactam 1-C)	µg/mL	=	0.0313
C[C@@H]1[C@H](O)[C@@H](C)/C=C/C=C/C=C/C=C/C=C/C=C/C=C/[C@H](O[C@@H]2O[C@H](C)[C@@H](O)[C@H](N)[C@@H]2O)C[C@@H]2O[C@](O)(C[C@@H](O)C[C@@H](O)[C@H](O)CC[C@@H](O)C[C@@H](O)CC(=O)O[C@H]1C)C[C@H](O)[C@H]2C(=O)O	µg/mL	=	1

* * *

Known MFC of a selection of molecules
# System: Aspergillus terreus
# Method description: Antifungal activity against Aspergillus terreus NBRC 33026 after 48 hrs by broth microdilution method
# Format: functional
# Reported conditions: NBRC 33026, 48 h
Starred links: 1 amine or outer side, 2 acyl side, 3 side chain; linkers in the order of their positions; H or OH if unused. Positions of bridges follow the written chain, without caps; N, C: chain ends. Non-standard residues stand in square brackets, D forms with d. Residues, ends and D or L forms follow the SMILES beside them. *: point of attachment. hTyr(3S-OH,4S-OH,3'-OSO3H) = N[C@H](C(=O)O)[C@H](O)[C@@H](O)c1ccc(O)c(OS(=O)(=O)O)c1; Orn(4R-OH,5R-OH) = O=C([C@H](C[C@@H](O)[C@@H](O)N[*:3])N[*:1])[*:2]; Pro(3S-OH,4S-Me) = C[C@H]1CN[C@H](C(=O)O)[C@H]1O; X1 = CCCCCOc1ccc(-c2cc(-c3ccc(C(=O)*)cc3)no2)cc1; Gln(3R-OH) = NC(=O)C[C@@H](O)[C@H](N)C(=O)O; Hyp = O=C(O)[C@@H]1C[C@@H](O)CN1
Measurement kind: MFC (µg/mL)

Molecule	Target under test	Uom	Limit operator	Observed result
C[C@@H](c1ncncc1F)[C@](O)(Cn1cncn1)c1ccc(F)cc1F	Aspergillus terreus	µg/mL	=	32
CCCCCOc1ccc(-c2cc(-c3ccc(C(=O)N[C@H]4C[C@@H](O)[C@@H](O)NC(=O)[C@@H]5[C@@H](O)[C@@H](C)CN5C(=O)[C@H]([C@H](O)CC(N)=O)NC(=O)[C@H]([C@H](O)[C@@H](O)c5ccc(O)c(OS(=O)(=O)O)c5)NC(=O)[C@@H]5C[C@@H](O)CN5C(=O)[C@H]([C@@H](C)O)NC4=O)cc3)no2)cc1 [MICAFUNGIN] (X1-[Orn(4R-OH,5R-OH)]T[Hyp][hTyr(3S-OH,4S-OH,3'-OSO3H)][Gln(3R-OH)][Pro(3S-OH,4S-Me)]; lactam 1-C)	Aspergillus terreus	µg/mL	>	64
OC(Cn1cncn1)(Cn1cncn1)c1ccc(F)cc1F	Aspergillus terreus	µg/mL	>	64
N=C(N)c1ccc(OCCCC2CCN(CCCOc3ccc(C(=N)N)cc3)CC2)cc1	Aspergillus terreus	µg/mL	=	4
C[C@@H]1[C@H](O)[C@@H](C)/C=C/C=C/C=C/C=C/C=C/C=C/C=C/[C@H](O[C@@H]2O[C@H](C)[C@@H](O)[C@H](N)[C@@H]2O)C[C@@H]2O[C@](O)(C[C@@H](O)C[C@@H](O)[C@H](O)CC[C@@H](O)C[C@@H](O)CC(=O)O[C@H]1C)C[C@H](O)[C@H]2C(=O)O	Aspergillus terreus	µg/mL	>	64

* * *

# Tested on: Candida albicans
# Method description: Antifungal activity against Candida albicans ATCC 96901 after 47 hrs by broth microdilution method
# Format: functional
# Reported conditions: ATCC 96901, 47 h
Starred links: 1 amine or outer side, 2 acyl side, 3 side chain; linkers in the order of their positions; H or OH if unused. Positions of bridges follow the written chain, without caps; N, C: chain ends. Non-standard residues stand in square brackets, D forms with d. Residues, ends and D or L forms follow the SMILES beside them. *: point of attachment. hTyr(3S-OH,4S-OH,3'-OSO3H) = N[C@H](C(=O)O)[C@H](O)[C@@H](O)c1ccc(O)c(OS(=O)(=O)O)c1; Orn(4R-OH,5R-OH) = O=C([C@H](C[C@@H](O)[C@@H](O)N[*:3])N[*:1])[*:2]; Pro(3S-OH,4S-Me) = C[C@H]1CN[C@H](C(=O)O)[C@H]1O; X1 = CCCCCOc1ccc(-c2cc(-c3ccc(C(=O)*)cc3)no2)cc1; Gln(3R-OH) = NC(=O)C[C@@H](O)[C@H](N)C(=O)O; Hyp = O=C(O)[C@@H]1C[C@@H](O)CN1
Known MIC of a selection of molecules
Measurement kind: MIC (µg/mL)

Molecule	Measurement kind	Uom	Limit operator	Observed result
OC(Cn1cncn1)(Cn1cncn1)c1ccc(F)cc1F	MIC	µg/mL	>	64
C[C@@H](c1ncncc1F)[C@](O)(Cn1cncn1)c1ccc(F)cc1F	MIC	µg/mL	=	0.5
N=C(N)c1ccc(OCCCC2CCN(CCCOc3ccc(C(=N)N)cc3)CC2)cc1	MIC	µg/mL	=	0.001
C[C@@H]1[C@H](O)[C@@H](C)/C=C/C=C/C=C/C=C/C=C/C=C/C=C/[C@H](O[C@@H]2O[C@H](C)[C@@H](O)[C@H](N)[C@@H]2O)C[C@@H]2O[C@](O)(C[C@@H](O)C[C@@H](O)[C@H](O)CC[C@@H](O)C[C@@H](O)CC(=O)O[C@H]1C)C[C@H](O)[C@H]2C(=O)O	MIC	µg/mL	=	1
CCCCCOc1ccc(-c2cc(-c3ccc(C(=O)N[C@H]4C[C@@H](O)[C@@H](O)NC(=O)[C@@H]5[C@@H](O)[C@@H](C)CN5C(=O)[C@H]([C@H](O)CC(N)=O)NC(=O)[C@H]([C@H](O)[C@@H](O)c5ccc(O)c(OS(=O)(=O)O)c5)NC(=O)[C@@H]5C[C@@H](O)CN5C(=O)[C@H]([C@@H](C)O)NC4=O)cc3)no2)cc1 [MICAFUNGIN] (X1-[Orn(4R-OH,5R-OH)]T[Hyp][hTyr(3S-OH,4S-OH,3'-OSO3H)][Gln(3R-OH)][Pro(3S-OH,4S-Me)]; lactam 1-C)	MIC	µg/mL	=	0.125

* * *

# System: Candida albicans
# Method description: Antifungal activity against Candida albicans ATCC 64550 after 47 hrs by broth microdilution method
# Assay type: functional
# Reported conditions: ATCC 64550, 47 h
Starred links: 1 amine or outer side, 2 acyl side, 3 side chain; linkers in the order of their positions; H or OH if unused. Positions of bridges follow the written chain, without caps; N, C: chain ends. Non-standard residues stand in square brackets, D forms with d. Residues, ends and D or L forms follow the SMILES beside them. *: point of attachment. hTyr(3S-OH,4S-OH,3'-OSO3H) = N[C@H](C(=O)O)[C@H](O)[C@@H](O)c1ccc(O)c(OS(=O)(=O)O)c1; Orn(4R-OH,5R-OH) = O=C([C@H](C[C@@H](O)[C@@H](O)N[*:3])N[*:1])[*:2]; Pro(3S-OH,4S-Me) = C[C@H]1CN[C@H](C(=O)O)[C@H]1O; X1 = CCCCCOc1ccc(-c2cc(-c3ccc(C(=O)*)cc3)no2)cc1; Gln(3R-OH) = NC(=O)C[C@@H](O)[C@H](N)C(=O)O; Hyp = O=C(O)[C@@H]1C[C@@H](O)CN1
So basically: is MIC under 1 µg/mL? Then satisfied. Not under? Then not satisfied.

Compound	Assigned class
C[C@@H](c1ncncc1F)[C@](O)(Cn1cncn1)c1ccc(F)cc1F	satisfied
CCCCCOc1ccc(-c2cc(-c3ccc(C(=O)N[C@H]4C[C@@H](O)[C@@H](O)NC(=O)[C@@H]5[C@@H](O)[C@@H](C)CN5C(=O)[C@H]([C@H](O)CC(N)=O)NC(=O)[C@H]([C@H](O)[C@@H](O)c5ccc(O)c(OS(=O)(=O)O)c5)NC(=O)[C@@H]5C[C@@H](O)CN5C(=O)[C@H]([C@@H](C)O)NC4=O)cc3)no2)cc1 [MICAFUNGIN] (X1-[Orn(4R-OH,5R-OH)]T[Hyp][hTyr(3S-OH,4S-OH,3'-OSO3H)][Gln(3R-OH)][Pro(3S-OH,4S-Me)]; lactam 1-C)	satisfied
OC(Cn1cncn1)(Cn1cncn1)c1ccc(F)cc1F	not satisfied
N=C(N)c1ccc(OCCCC2CCN(CCCOc3ccc(C(=N)N)cc3)CC2)cc1	satisfied

# credit: ChEMBL document CHEMBL1255303
